- Test system: 786-0
- test summary: NCI tumour cell line growth inhibition, 48 h
Active and inactive are the calls of the source. No stated cut-off is given here; in the data, active = GI50 up to about 1.1 µM and inactive = higher.
measurement name: GI50

// sample `C[Si](C)(C)C#C[I+]c1ccccc1` , its GI50 was 45.6 µM (inactive)

Given item `O=C1OC(c2ccccc2)=N/C1=C\c1c(O)cc(O)cc1O` , the value recorded as its GI50 is > 100 µM (inactive)

Field GI50 (entry CC(=O)OCC1OC(N2C(=O)CC(N)=Nc3ccccc32)C(OC(C)=O)C(OC(C)=O)C1OC(C)=O (stereo not drawn) ) reads > 100 µM (inactive)

Record `CN(CC(=O)O)Cc1c[nH]c2ccccc12` , field GI50: > 100 µM (inactive)

The compound listed as `C=CO/N=[N+](\[O-])N(CC)CC` shows GI50 equal to > 100 µM (inactive)

Record summary for `Cc1c(C(=O)/C=C/c2ccc(N(C)C)cc2)c(=O)n(-c2ccccc2)n1C` : reported GI50 = > 100 µM (inactive)

Recorded GI50 (compound O=C1c2cccc3cccc(c23)C2NCCCN12 (stereo not drawn) ): > 100 µM (inactive)

Per the record, `Cc1cc(C)n(CN(Cn2nc(C)cc2C)c2ccc(N(Cn3nc(C)cc3C)Cn3nc(C)cc3C)cc2)n1` has GI50 of 19.3 µM (inactive)

# compound `Cc1ccc(S(=O)(=O)Nn2c(C)cc3ccc(S(=O)(=O)Nc4ccccc4[N+](=O)[O-])cc3c2=O)cc1` ; its GI50 = > 100 µM (inactive)

Entry C=CCOc1cccc(C2(O)c3ccccc3C3=NCCCN32)c1 (stereo not drawn) — recorded GI50 = 8.49 µM (inactive)

Sample Cc1cnc2c(c1)C(=O)C1=C(OC(C)(C)CC1O)C2=O (stereo not drawn) ; GI50 observed: 14.9 µM (inactive)

Sample `CCN(CC)CCCn1cnc2ncccc2c1=O` ; GI50 observed: > 100 µM (inactive)

The compound listed as `Cc1cc(=O)[nH]c(-n2[nH]c3c(c2=O)CCCC3)n1` shows GI50 equal to 57.7 µM (inactive)

Looking up `CC(C)(CO)CNc1nc(N)nc(Cl)c1C=O` , I found its GI50 recorded as 79.3 µM (inactive)

Per the record, `O=C(c1ccccc1)c1nnn(Cc2ccccc2Cn2nnc(C(=O)c3ccccc3)c2C(=O)c2ccccc2)c1C(=O)c1ccccc1` has GI50 of > 100 µM (inactive)

Entry `C1=N/CCNCCNCC/N=C/c2ccccc2OCc2cccc(n2)COc2ccccc2/1` ; GI50 = 64.6 µM (inactive)

// recorded GI50 for `N#CC1(C#N)C(c2ccc(C3C(C#N)(C#N)C3(C#N)C#N)cc2)C1(C#N)C#N` : > 100 µM (inactive)

Entry `COC(=O)/C(=C(/C)c1ccco1)P(=O)(OC)OC` — recorded GI50 = > 100 µM (inactive)

For CC1(C)C2CCC1(C)C(N/C(=C(/C(Cl)=C(Cl)Cl)[N+](=O)[O-])n1nnc3ccccc31)C2 (stereo not drawn) the compound record lists GI50 as 41.1 µM (inactive)

According to the records, this compound `O=C1Nc2nnc(S)n2NC12c1ccccc1-c1ccccc12` displays GI50 of > 100 µM (inactive)

According to the records, this compound `C[C@]12CC[C@H](O)C[C@@H]1CC[C@@H]1[C@@H]2CC[C@]2(C)[C@@H](C3=CC(=O)OC3)CC[C@]12O` displays GI50 of 1.95 µM (inactive)

Lab book: GI50 of `COc1cc(/C=C\c2ccc(O)cc2)cc(OC)c1OC` noted as 8.59 µM (inactive)

Lab book: GI50 of COC(=O)C(C(=O)C(=O)Nc1cccc(C)c1)C1=NC(N)SS1 (stereo not drawn) noted as > 100 µM (inactive)
